- System: rat Monoamine Oxidase, MAO-A, Central (MAOAC), gene 29253
- protocol_details: NVS_ENZ_rMAOAC: NovaScreen (NVS) Enzymatic Assay for rat Monoamine Oxidase, MAO-A, Central (MAOAC) (AID 2283243);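 note: potency refers to inhibition seen as signal drop below DMSO baseline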
- Experimental: NVS_ENZ_rMAOAC is a biochemical, single-readout assay that uses extracted gene-proteins from Rat brain in a tissue-based cell-free assay. Measurements were taken 1.5 hours after chemical dosing in a 96-well plate.NVS_ENZ_rMAOAC is one of one assay component(s) measured or calculated from the NVS_ENZ_rMAOAC assay. […] This assay endpoint, NVS_ENZ_rMAOAC, was analyzed in the positive analysis fitting direction relative to DMSO as the negative control and baseline of activity. […]
Active and inactive are the calls of the source. Rule for the calls: active = hit-call score of the fitted dose curve at least 0.9, where 1 is the maximum; inconclusive = response in the unintended direction; inactive = score below 0.9.
Could you please pick one outcome from this set? active, inactive

What outcome does the record of this test show for Nc1c(Cl)c(F)nc(OCC(=O)O)c1Cl ? active

What outcome does the record of this test show for Cc1ccc(N=CN(C)C=Nc2ccc(C)cc2C)c(C)c1 ? active

What outcome does the record of this test show for Cc1nc(N(C)C)nc(OC(=O)N(C)C)c1C ? active

# ---- query compound ----
What outcome does the record of this test show for N#Cc1c[nH]cc1-c1cccc2c1OC(F)(F)O2 ? inactive

###

- protocol_details: ATG_PPRE_CIS: Attagene CIS-FACTORIAL HepG2 Assay for human Peroxisome Proliferator-activated Response Element (PPRE) (AID 2282958)
- condition: HepG2 PPRE cis-element reporter, Attagene transcription factor profiling; actives raise or lower the signal
Active and inactive are the calls of the source. How the source made its calls: active means hit-call score of the fitted dose curve at least 0.9, where 1 is the maximum; inactive means score below 0.9.
Could you please pick one outcome from this set? active, inactive

Answered examples (3):
What outcome does the record of this test show for Cc1c(COC(=O)[C@@H]2[C@H](/C=C(\Cl)C(F)(F)F)C2(C)C)cccc1-c1ccccc1 ? inactive

What outcome does the record of this test show for CCOP(=O)(OCC)Oc1nc(Cl)c(Cl)cc1Cl ? active

What outcome does the record of this test show for CCN(CC)C(=O)C(C)Oc1cccc2ccccc12 (centres undefined) ? active

Others:
What outcome does the record of this test show for CNC(=O)N(C)c1nnc(C(C)(C)C)s1 ? inactive

What outcome does the record of this test show for Nc1cnn(-c2ccccc2)c(=O)c1Cl ? inactive

What outcome does the record of this test show for CC(C)=CC1C(C(=O)OCc2coc(Cc3ccccc3)c2)C1(C)C (centres undefined) ? active

What outcome does the record of this test show for CC(C)N1C(=O)N(c2ccccc2)CSC1=NC(C)(C)C ? inactive

What outcome does the record of this test show for N#Cc1c(Cl)cccc1Cl ? inactive

What outcome does the record of this test show for CCCCC(O)(Cn1cncn1)c1ccc(Cl)cc1Cl (centres undefined) ? inactive

###

- protocol_details: CCTE_Simmons_MITO_basal_resp_rate: CCTE's HepG2 Seahorse XF Respirometric Screening Assay at Basal Respiratory State, Simmons Lab (AID 2284001)
- condition: actives raise or lower the signal
The source made the active and inactive calls. How the source made its calls: active means hit-call score of the fitted dose curve at least 0.9, where 1 is the maximum; inactive means score below 0.9.
result_type: AC50

Hello, please tell me recorded AC50 for this one: CC(C)=CC1C(C(=O)OCc2coc(Cc3ccccc3)c2)C1(C)C (stereo unspecified) inactive

Hello, please tell me recorded AC50 for this one: CCN(CC)c1nc(C)cc(OP(=S)(OC)OC)n1 inactive

Hello, please tell me recorded AC50 for this one: Cn1c(-c2ccccc2)cc(-c2ccccc2)[n+]1C 41.9 µM (active)

Hello, please tell me recorded AC50 for this one: Cc1c(COC(=O)[C@@H]2[C@H](/C=C(\Cl)C(F)(F)F)C2(C)C)cccc1-c1ccccc1 inactive

Hello, please tell me recorded AC50 for this one: CC1(C)C(C=C(Cl)Cl)C1C(=O)OC(C#N)c1cccc(Oc2ccccc2)c1 (stereo unspecified) inactive

Others:
Hello, please tell me recorded AC50 for this one: Nc1c(Cl)c(F)nc(OCC(=O)O)c1Cl inactive

Hello, please tell me recorded AC50 for this one: COCC(=O)N(c1c(C)cccc1C)C(C)C(=O)OC (stereo unspecified) 36.2 µM (active)

Hello, please tell me recorded AC50 for this one: CO/N=C(/C1=NOCCO1)c1ccccc1Oc1ncnc(Oc2ccccc2Cl)c1F 6.74 µM (active)

Hello, please tell me recorded AC50 for this one: COCC(C)N(C(=O)CCl)c1c(C)csc1C (stereo unspecified) 55.3 µM (active)

Hello, please tell me recorded AC50 for this one: CCOP(=O)(OCC)Oc1nc(Cl)c(Cl)cc1Cl 29.6 µM (active)
